ROS (composite Z-score) listing for selected compounds.
# System: reactive oxygen species
# Format: cell-based, mouse
# CONDITION_NOTES: Conc 20 μM; normalized score vs mock-treated (DMSO) wells
// keep it numeric: no unit symbol after the value

Solved cases (5 shown):
O=C(Oc1cc(OC(=O)c2ccccc2)c2c(c1)O[C@H](c1ccc(OC(=O)c3ccccc3)c(OC(=O)c3ccccc3)c1)[C@@H](OC(=O)c1ccccc1)C2)c1ccccc1 [catechin pentabenzoate]    0.599
O=C(O)c1cc(O)c2c(c1)C(=O)c1cc(O)cc(O)c1C2=O    1.403
Oc1ccc2c(c1)O[C@H](c1ccc(O)c(O)c1)[C@@H](O)C2 [fisetinidol, reference compound]    −0.215
O=C(/C=C/c1ccccc1)c1ccc(O[C@@H]2O[C@H](CO)[C@@H](O)[C@H](O)[C@H]2O)cc1O [2′,4′-dihydroxychalcone 4′-glucoside]    1.144
CCC[C@H]1CC2=C(C[C@@H](CC)CC3=C1C(=O)OC3=O)C(=O)OC2=O    0.253

Now turn to the next compound.
Any idea what ROS (composite Z-score) was measured for CC(=O)O[C@@H]1C[C@H]2C(C)(C)CCC(=O)[C@]2(C)[C@H]2CC[C@@]3(C)[C@H](c4ccoc4)OC(=O)[C@H]4O[C@]43[C@@]21C [2,3-dihydroisogedunin] ?
0.780
